# target.under.test: human ETA receptor (Homo sapiens, UniProt P25101)
# Construct: expressed in transfected cells; host or cells: CHO cells, permanently transfected
# Sequence (P25101 21-427): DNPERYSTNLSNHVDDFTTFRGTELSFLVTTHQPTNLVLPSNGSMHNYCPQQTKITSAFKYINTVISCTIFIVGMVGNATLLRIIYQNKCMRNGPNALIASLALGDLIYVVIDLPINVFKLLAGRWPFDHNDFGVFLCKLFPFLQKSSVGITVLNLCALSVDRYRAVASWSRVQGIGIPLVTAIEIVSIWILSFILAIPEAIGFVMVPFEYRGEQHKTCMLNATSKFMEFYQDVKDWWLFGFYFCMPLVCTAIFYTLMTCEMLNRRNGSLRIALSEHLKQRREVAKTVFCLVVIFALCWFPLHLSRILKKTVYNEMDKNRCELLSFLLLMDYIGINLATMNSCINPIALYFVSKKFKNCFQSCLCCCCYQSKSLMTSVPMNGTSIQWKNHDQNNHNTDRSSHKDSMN
# assay.comment: ETA/ETB selectivity: (125I)ET-1 competition binding, CHO cells transfected with human ETA receptor (hET-A)
property.label: IC50 (nM)
Numbers only here, please. The scale is nM.

• CC=CC(C)(C)CC1C(C(=O)O)C(c2cc(OC)c3c(c2)OCO3)CN1CC(=O)N(CCCC)CCCC (centres unmarked) [Example 553] = 0.29

Consider the molecule CC=CC(C)(C)CC1C(C(=O)O)C(c2ccc3c(c2)OCO3)CN1CC(=O)N(CCCC)CCCC (centres unmarked) [compound 552] and give its measured IC50. 1

----------
# assay.comment: Determination of plasma protein binding (ultrafiltration, HPLC)
# Format: in vitro ADME
# Design: dose or concentration left out as unconfirmed
# condition: fresh plasma, 1 hour at room temperature, read-out: percent of bound compound (plasma protein binding, % PB) (converted)
property.label: fraction unbound at 1 h
# output: bare number, no unit

* CCCCN(C(=O)CN1CC(c2ccc3c(c2)OCO3)C(C(=O)O)C1c1ccc(OC)cc1)c1cccc(CN)c1 (centres unmarked) | 0.032

Proceed to the following item.
I have this compound here, CCCCN(C(=O)CN1CC(c2ccc3c(c2)OCO3)C(C(=O)O)C1c1ccc(OC)cc1)c1cccnc1 (centres unmarked) , and I need its recorded fraction unbound at 1 h. 0.08

----------
# target.under.test: human ETA receptor (Homo sapiens)
# Construct: expressed in transfected cells; host or cells: CHO cells, permanently transfected
# assay.comment: ETA/ETB selectivity: (125I)ET-1 competition binding, CHO cells transfected with human ETA receptor (hET-A)
# condition: CHO cells transfected with human ETA receptor; 0.1 nM (125I)ET-1; read-out: hET-A IC50
Labelling: IC50 reported below 2 nM becomes Condition met; at or above becomes Condition not met.

- CCCCN(CCCC)C(=O)CN1C[C@H](c2ccc3c(c2)OCO3)[C@@H](C(=O)O)[C@@H]1CC(C)(C)CCC [compound 537]: Condition met
- CCCCN(CCCC)C(=O)CN1CC(c2cc(OC)c3c(c2)OCO3)C(C(=O)O)C1CCC1OCCO1 (centres unmarked) [compound 509]: Condition met
- CCCC(CCC)N(C(=O)CN1C[C@H](c2ccc3c(c2)OCO3)[C@@H](C(=O)O)[C@@H]1CC(C)(C)CCC)c1ccc(F)c(C)c1 [compound 511]: Condition met
- CCCCN(CCCC)C(=O)CN1CC(c2ccc3c(c2)OCO3)C(C(=O)O)C1CC(C)(C)C1OCCO1 (centres unmarked) [compound 507]: Condition met

// switching to the query compound
Hello, I'm reviewing records and need to know if IC50 of CCCCN(CCCN)C(=O)CN1CC(c2ccc3c(c2)OCO3)C(C(=O)O)C1c1ccc(OC)cc1 (centres unmarked) [compound 526] is below 2 nM. Could you check? Condition not met

The measurements presented in this section are drawn from patent US7208517B1.
